Measured melting point accompanies every entry in the list below.

These solved cases illustrate the format of a correct answer.
CC(=O)c1ccc(C2=C(c3ccc(S(C)(=O)=O)cc3)OC(C)(C)C2=O)cc1 | 164 to 167 °C
Clc1cc(-c2cc3ccccc3s2)nc2ccccc12 | 142 to 145 °C
Cc1c(-c2ccc(C[C@H](NC(=O)c3c(F)cccc3C(F)(F)F)C(=O)O)cc2)c(=O)n(C)c(=O)n1C | 218 to 220 °C

# molecule N#CSc1nc(I)ncc1I ; its melting point = 183 to 185 °C

# molecule CC(C)Oc1ccc2c(c1)Cc1ccccc1C2=O ; its melting point = 123 to 124 °C
